- System: Vero E6
- Protocol details: cell viability relative to DMSO; higher = less toxic
- Measurement parameters: 72 h; 10 nM
Measurement label: cell viability (%)
Value expressed in %; do not type the unit.

Q: Check the records and state cell viability for CCCCCCCCCCCCCC(=O)OC(C)C [isopropyl-myristate]
Ans: 104

Q: Check the records and state cell viability for C[C@@H](O)[C@@H]1NC(=O)[C@H](CCCCN)NC(=O)[C@@H](Cc2c[nH]c3ccccc23)NC(=O)[C@H](Cc2ccccc2)NC(=O)[C@@H](NC(=O)[C@H](N)Cc2ccccc2)CSSC[C@@H](C(=O)N[C@H](CO)[C@@H](C)O)NC1=O [octreotide]
Ans: 103

Q: Check the records and state cell viability for COc1ccc(CC(=O)NC(/N=C(\NC#N)Nc2cccc3ncccc23)C(C)(C)C)cc1OC (stereo not drawn)
Ans: 97

###

Please respond with reported cell viability for every item in the list.
- Test system: HepG2
- Protocol details: cell viability relative to DMSO; higher = less toxic
- Measurement parameters: 72 h; 10 nM
Value expressed in %; do not type the unit.

Q: Check the records and state cell viability for O=C(O)CCCN1C(=O)c2cccc3cccc(c23)C1=O [isodibut]
Ans: 95.8

Q: Check the records and state cell viability for O=C(/C=C/c1ccc(O)cc1)c1ccc(O)cc1O [isoliquiritigenin]
Ans: 107

Q: Check the records and state cell viability for NCCC(O)(P(=O)(O)O)P(=O)(O)O [pamidronate]
Ans: 105

Q: Check the records and state cell viability for NCC1(CC(=O)O)CCCCC1 [gabapentin]
Ans: 97.6

Q: Check the records and state cell viability for Cc1c(C)c2c(c(C)c1OC(=O)CCC(=O)OCCO)CC[C@@](C)(CCC[C@H](C)CCC[C@H](C)CCCC(C)C)O2 [tocofersolan]
Ans: 99.8

Q: Check the records and state cell viability for c1ccc(-c2ccc(C(c3ccccc3)n3ccnc3)cc2)cc1 (stereo not given) [bifonazole]
Ans: 97.1

Q: Check the records and state cell viability for [N-]=[N+]=CC(=O)CC[C@H](N)C(=O)O [6-diazo-5-oxo-L-norleucine]
Ans: 105

Q: Check the records and state cell viability for CCCCCCCCCCCCCCCC=O [1-hexadecanal]
Ans: 105

Q: Check the records and state cell viability for "CC(=O)N(O)[C@@H]1c2cc(C#N)ccc2OC(C)(C)[C@H]1O"
Ans: 108

Q: Check the records and state cell viability for C[C@H](Nc1ncnc2[nH]cnc12)c1nc2ccc(F)cc2c(=O)n1-c1ccccc1 [acalisib]
Ans: 107

###

- System: Vero E6
- Protocol details: cell viability relative to DMSO; higher = less toxic
- Measurement parameters: 72 h; 1000 nM
rule met if cell viability is below 90%. rule not met if not; exact matches included in rule not met.

Q: Strictly below 90% in cell viability? CC(=O)O[C@H]1Cc2ccccc2N(C(N)=O)c2ccccc21 [eslicarbazepine-acetate]
Ans: rule not met

Q: Strictly below 90% in cell viability? "CC(C)(C)CCN1C[C@@H]2[C@@H](CNC(=O)c3cc(Cl)cc(Cl)c3)[C@@H]2C1"
Ans: rule not met

Q: Strictly below 90% in cell viability? CC(=O)Nc1ccccc1 [acetanilide]
Ans: rule not met

Q: Strictly below 90% in cell viability? "CC(C)[C@@H](CN1CC[C@@](C)(c2cccc(O)c2)[C@@H](C)C1)NC(=O)[C@H]1Cc2ccc(O)cc2CN1"
Ans: rule not met

Q: Strictly below 90% in cell viability? O=C(Nc1cccc2cccnc12)c1ccc(N2C(=O)[C@@H]3[C@H](C2=O)[C@@H]2C=C[C@H]3C2)cc1 [endo-IWR-1]
Ans: rule met

Q: Strictly below 90% in cell viability? "O=C(Nc1ccccc1)[C@]12C[C@H]1/C(=N\O)c1ccccc1O2"
Ans: rule not met
